The measured values listed here are drawn from PubChem BioAssay (EPA / NIEHS).

read-out: Cytochrome P450 2B6 (Homo sapiens) (UniProt P20813); assay: CLD_CYP2B6_24hr: CellzDirect (CLD) Gene Expression Assay for xenobiotic metabolism (CYP2B6) at 24 hours (AID 2283686)
Results filed as inconclusive are left out. Calls of active or inactive are those of the source. The calls were made as follows: active = hit-call score of the fitted dose curve at least 0.9, where 1 is the maximum; inconclusive = response in the unintended direction; inactive = score below 0.9.
# valid calls are active, inactive; nothing else

stdin: Given CC1=NNC(=O)N(/N=C/c2cccnc2)C1 , state the outcome it received in this test.
stdout: inactive

stdin: Given CNC(=O)ON=C(SC)C(=O)N(C)C , state the outcome it received in this test.
stdout: inactive

stdin: Given CCCCOC(=O)[C@@H](C)Oc1ccc(Oc2ccc(C#N)cc2F)cc1 , state the outcome it received in this test.
stdout: inactive

stdin: Given CC(C1CC1)C(O)(Cn1cncn1)c1ccc(Cl)cc1 (configuration not stated) , state the outcome it received in this test.
stdout: active

stdin: Given CCOP(=S)(OCC)Oc1ccc([N+](=O)[O-])cc1 , state the outcome it received in this test.
stdout: active

stdin: Given COP(=O)(NC(C)=O)SC (configuration not stated) , state the outcome it received in this test.
stdout: inactive

stdin: Given C[Si](Cn1cncn1)(c1ccc(F)cc1)c1ccc(F)cc1 , state the outcome it received in this test.
stdout: active

stdin: Given CCOP(=S)(OCC)OC(Cl)C(Cl)(Cl)Cl (configuration not stated) , state the outcome it received in this test.
stdout: active

stdin: Given CSc1nnc(C(C)(C)C)c(=O)n1N , state the outcome it received in this test.
stdout: active

stdin: Given CON=C(C(=O)OC)c1ccccc1CON=C(C)c1cccc(C(F)(F)F)c1 , state the outcome it received in this test.
stdout: active

stdin: Given CC1(C(=O)Nc2ccc(O)c(Cl)c2Cl)CCCCC1 , state the outcome it received in this test.
stdout: inactive

stdin: Given CCOP(=S)(Oc1cnc(C(C)(C)C)nc1)OC(C)C (configuration not stated) , state the outcome it received in this test.
stdout: active

stdin: Given CCOC(=O)COc1cc(-c2nn(C)c(OC(F)F)c2Cl)c(F)cc1Cl , state the outcome it received in this test.
stdout: active

stdin: Given CN(C)C(=O)Nc1cccc(C(F)(F)F)c1 , state the outcome it received in this test.
stdout: active

stdin: Given CC(=NC#N)N(C)Cc1ccc(Cl)nc1 , state the outcome it received in this test.
stdout: inactive

stdin: Given CCOC(=O)CC(SP(=O)(OC)OC)C(=O)OCC (configuration not stated) , state the outcome it received in this test.
stdout: active

stdin: Given CCOP(=O)(OCC)Oc1cc(C)nc(C(C)C)n1 , state the outcome it received in this test.
stdout: active

stdin: Given CN(C)NC(=O)CCC(=O)O , state the outcome it received in this test.
stdout: inactive

stdin: Given CC(C)=CC1C(C(=O)OCN2C(=O)C3=C(CCCC3)C2=O)C1(C)C (configuration not stated) , state the outcome it received in this test.
stdout: active

stdin: Given COP(=O)(OC)OC(Br)C(Cl)(Cl)Br (configuration not stated) , state the outcome it received in this test.
stdout: inactive

stdin: Given O=C(O)c1cc(Oc2ccc(C(F)(F)F)cc2Cl)ccc1[N+](=O)[O-] , state the outcome it received in this test.
stdout: inactive

stdin: Given Nc1nc(N)nc(NC2CC2)n1 , state the outcome it received in this test.
stdout: inactive

stdin: Given Nc1c(Cl)cc([N+](=O)[O-])cc1Cl , state the outcome it received in this test.
stdout: active

stdin: Given CCOP(=S)(OCC)SCCSCC , state the outcome it received in this test.
stdout: active

stdin: Given CNc1cnn(-c2cccc(C(F)(F)F)c2)c(=O)c1Cl , state the outcome it received in this test.
stdout: active

stdin: Given CCOP(=O)(NC(C)C)Oc1ccc(SC)c(C)c1 (configuration not stated) , state the outcome it received in this test.
stdout: active

stdin: Given CCCOc1nn(C(=O)NS(=O)(=O)c2ccccc2C(=O)OC)c(=O)n1C , state the outcome it received in this test.
stdout: inactive

stdin: Given C#CC(C)(C)NC(=O)c1cc(Cl)cc(Cl)c1 , state the outcome it received in this test.
stdout: inactive

stdin: Given CC(COc1ccc(Oc2ccccc2)cc1)Oc1ccccn1 (configuration not stated) , state the outcome it received in this test.
stdout: active

stdin: Given CNC(=O)ON=C(C)SC , state the outcome it received in this test.
stdout: inactive

stdin: Given CCC(=NOC/C=C/Cl)C1=C(O)CC(C2CCOCC2)CC1=O (configuration not stated) , state the outcome it received in this test.
stdout: inactive

stdin: Given CSc1nc(NC(C)C)nc(NC(C)C)n1 , state the outcome it received in this test.
stdout: active

stdin: Given CNC(=O)Oc1cccc2c1OC(C)(C)O2 , state the outcome it received in this test.
stdout: active

stdin: Given S=C1NCCN1 , state the outcome it received in this test.
stdout: inactive

stdin: Given COc1ccc(C(=CC(=O)N2CCOCC2)c2ccc(Cl)cc2)cc1OC , state the outcome it received in this test.
stdout: active

stdin: Given CCC(=O)Nc1ccc(Cl)c(Cl)c1 , state the outcome it received in this test.
stdout: active

stdin: Given Cc1nn(-c2cc(NS(C)(=O)=O)c(Cl)cc2Cl)c(=O)n1C(F)F , state the outcome it received in this test.
stdout: active

stdin: Given CCCCN(CC)c1c([N+](=O)[O-])cc(C(F)(F)F)cc1[N+](=O)[O-] , state the outcome it received in this test.
stdout: active

stdin: Given CCc1cnc(C2=NC(C)(C(C)C)C(=O)N2)c(C(=O)O)c1 (configuration not stated) , state the outcome it received in this test.
stdout: inactive

stdin: Given CCOP(=O)(SC(C)CC)N1CCSC1=O (configuration not stated) , state the outcome it received in this test.
stdout: active

stdin: Given C#CCC1=C(C)C(OC(=O)C2C(C=C(C)C)C2(C)C)CC1=O (configuration not stated) , state the outcome it received in this test.
stdout: active

stdin: Given CC[C@H](C)[C@H]1O[C@]2(C=C[C@@H]1C)C[C@@H]1C[C@@H](C/C=C(\C)[C@@H](O[C@H]3C[C@H](OC)[C@@H](O[C@H]4C[C@H](OC)[C@@H](NC)[C@H](C)O4)[C@H](C)O3)[C@@H](C)/C=C/C=C3\CO[C@@H]4[C@H](O)C(C)=C[C@@H](C(=O)O1)[C@]34O)O2 , state the outcome it received in this test.
stdout: inactive
